Origin of measurements: patent US20110217237A1

Molecular target: T1, human DLL4, full length, on cells (human, UniProt Q9NR61 27-685)
T1 construct: also called huDLL4 cells; human DLL4-293G
T1 sequence (Q9NR61 27-685 limits assumed): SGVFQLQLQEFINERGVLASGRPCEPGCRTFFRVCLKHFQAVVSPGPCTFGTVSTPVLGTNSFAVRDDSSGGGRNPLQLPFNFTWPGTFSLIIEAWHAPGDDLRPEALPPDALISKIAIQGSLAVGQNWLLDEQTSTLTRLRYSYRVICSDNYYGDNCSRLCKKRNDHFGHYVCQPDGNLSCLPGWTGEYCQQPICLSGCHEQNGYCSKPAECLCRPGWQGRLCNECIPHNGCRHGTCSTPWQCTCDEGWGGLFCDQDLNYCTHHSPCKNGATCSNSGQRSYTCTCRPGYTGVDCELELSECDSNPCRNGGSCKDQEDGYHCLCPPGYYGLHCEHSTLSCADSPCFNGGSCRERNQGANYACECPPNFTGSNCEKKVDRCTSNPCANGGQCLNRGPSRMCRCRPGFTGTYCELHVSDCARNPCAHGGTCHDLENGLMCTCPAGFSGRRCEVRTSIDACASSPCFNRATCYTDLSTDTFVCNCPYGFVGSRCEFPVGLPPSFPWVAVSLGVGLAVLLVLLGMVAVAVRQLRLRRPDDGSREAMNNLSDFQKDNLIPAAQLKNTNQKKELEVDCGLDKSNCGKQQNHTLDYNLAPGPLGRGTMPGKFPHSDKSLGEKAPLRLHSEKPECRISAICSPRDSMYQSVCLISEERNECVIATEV
Test: FACS, DLL4 cells

Binder: 37D10 chimeric antibody (antibody, human IgG1, V domains shown, also called Chimera of 37D10) VH: AVQLVESGGGLVQPKESLKISCAASGFTFSNAAMYWVRLAPGKGLEWVARIRTKPNNYATYYAESVKGRFTISRDDSKSMVYVQMDNLKTEDTAMYYCTAAPWRDSYAHVYWGQGVMVTVSS VL: DIQMTQSPPVLSASVGDRVTLSCKASQNIHKNLDWYQQKHGDAPKLLIYYTDHLQTGVPSRFSGSGSATDYTLTISSLQPEDVATYYCYQYNGGPFTFGSGTKLEIKR
Unit String: nM
EC50: 2.32
